target: BCL6 (Homo sapiens (Human), UniProt P41182); test: Immunofluorescence high content imaging of BCL6 degradation in T47D cells; type: cell-based; conditions: T47D
quantity.name: Dmax

Recorded Dmax, per entry:
[[record]]
compound = "CC(=O)[C@@H](C)Oc1cc2cc(Nc3nc(N4CCC(CN5CCN(c6ccc7c(c6)C(=O)N([C@H]6CCC(=O)NC6=O)C7=O)CC5)CC4)ncc3Cl)ccc2n(C)c1=O"
quantity_name = "Dmax"
endpoint_result = "< 50%"

[[record]]
compound = "CNC(=O)COc1cc2cc(Nc3nc(N4CCC(CN5CCN(c6cccc7c6C(=O)N(C6CCC(=O)NC6=O)C7=O)CC5)CC4)ncc3Cl)ccc2n(C)c1=O (centres unmarked)"
quantity_name = "Dmax"
endpoint_result = "≥ 70%"

[[record]]
compound = "CNC(=O)COc1cc2cc(Nc3nc(N4CCC(OC5CCN(c6cccc7c6C(=O)N(C6CCC(=O)NC6=O)C7=O)CC5)CC4)ncc3Cl)ccc2n(C(C)C)c1=O (centres unmarked)"
quantity_name = "Dmax"
endpoint_result = "50 to 70%"


Request: Entry under review: CNC(=O)COc1cc2cc(Nc3nc(N4CCC(OC5CCN(c6cccc7c6C(=O)N(C6CCC(=O)NC6=O)C7=O)CC5)CC4)ncc3Cl)ccc2n(C)c1=O (centres unmarked) . Reported Dmax?
Result: ≥ 70%

Request: Entry under review: CNC(=O)COc1cc2cc(Nc3nc(N4CCC[C@H](COc5cccc6c5C(=O)N(C5CCC(=O)NC5=O)C6=O)C4)ncc3Cl)ccc2n(CCOC)c1=O (some centres unmarked) . Reported Dmax?
Result: ≥ 70%

Request: Entry under review: CNC(=O)COc1cc2cc(Nc3nc(N4CCCN(c5ccc6c(c5)C(=O)N(C5CCC(=O)NC5=O)C6=O)CC4)ncc3Cl)ccc2n(C)c1=O (centres unmarked) . Reported Dmax?
Result: 50 to 70%

Request: Entry under review: CNC(=O)COc1cc2cc(Nc3nc(N4CCC(N5CCC6(CCN(c7cccc8c7C(=O)N(C7CCC(=O)NC7=O)C8=O)CC6)C5)CC4)ncc3Cl)ccc2n(C(C)C)c1=O (centres unmarked) . Reported Dmax?
Result: 50 to 70%

Request: Entry under review: CNC(=O)COc1cc2cc(Nc3nc(N4CCC5(CC4)CC(CN4CCN(c6ccc7c(c6)C(=O)N(C6CCC(=O)NC6=O)C7=O)CC4)C5)ncc3Cl)ccc2n(C(C)C)c1=O (centres unmarked) . Reported Dmax?
Result: 50 to 70%

Request: Entry under review: CNC(=O)COc1cc2cc(Nc3nc(N4CCC5(CC4)CCN(C4CCN(c6ccc7c(c6)C(=O)N(C6CCC(=O)NC6=O)C7=O)CC4)C5)ncc3Cl)ccc2n(C(C)C)c1=O (centres unmarked) . Reported Dmax?
Result: < 50%

Request: Entry under review: CNC(=O)COc1cc2cc(Nc3nc(N4CCN(CC5CCN(c6cccc7c6C(=O)N(C6CCC(=O)NC6=O)C7=O)CC5)CC4)ncc3Cl)ccc2n(C)c1=O (centres unmarked) . Reported Dmax?
Result: ≥ 70%

Request: Entry under review: CC(=O)COc1cc2cc(Nc3nc(N4CCC(OC5CN(c6ccc7c(c6)C(=O)N(C6CCC(=O)NC6=O)C7=O)C5)CC4)ncc3Cl)ccc2n(C)c1=O (centres unmarked) . Reported Dmax?
Result: < 50%

====

Examples of molecules with documented IC50 follow.
Biological target: BCL6 (Homo sapiens (Human), UniProt P41182)
Assay: Immunofluorescence high content imaging of BCL6 degradation in T47D cells
Format: cell-based
Description: Immunofluorescence Protocol for High Cotent Imaging of BCL6 T47D cells were seeded in 100 μl volume of RPMI1640-10% FBS in a 96-well black/clear bottom plates for adherent lines (Corning #3904). Day 1. T47D breast cancer epithelial cells were seeded at a density so that confluence is ˜70-90% at endpoint. Cells were seeded at 7K/0.1 ml/well the morning prior to the addition of exemplary bifunctional degradation compounds. Day 2. […] Plates were equilibrated to room temperature prior to reading. […]

[[record]]
molecule = "CNC(=O)COc1cc2cc(Nc3nc(N4CCC(CN5[C@H](C)CN(c6ccc(C(=O)NC7CCC(=O)NC7=O)c(F)c6)C[C@@H]5C)CC4)ncc3Cl)ccc2n(C)c1=O (some centres unmarked)"
quantity_name = "IC50"
endpoint_result = "50 to 100 nM"

[[record]]
molecule = "CNC(=O)[C@@H](C)Oc1cc2cc(Nc3nc(N4CCC(CN5CCN(c6ccc7c(c6)C(=O)N([C@@H]6CCC(=O)NC6=O)C7=O)CC5)CC4)ncc3Cl)ccc2n(C)c1=O"
quantity_name = "IC50"
endpoint_result = "≥ 100 nM"


Request: Identify the measured IC50 of CCn1c(=O)c(OCC(=O)NC)cc2cc(Nc3nc(N4CCN(CC5CCN(c6cccc(C(=O)NC7CCC(=O)NC7=O)c6F)CC5)CC4)ncc3Cl)ccc21 (centres unmarked) for BCL6 (Homo sapiens (Human), UniProt P41182).
Result: < 10 nM

Request: Identify the measured IC50 of CNC(=O)c1cc2cc(Nc3nc(N4CCC(CN5CCN(c6ccc7c(c6)C(=O)N(C6CCC(=O)NC6=O)C7=O)CC5)CC4)ncc3Cl)ccc2n(C)c1=O (centres unmarked) for BCL6 (Homo sapiens (Human), UniProt P41182).
Result: ≥ 100 nM

Request: Identify the measured IC50 of CNC(=O)COc1cc2cc(Nc3nc(N4CCN(CC5CCN(c6cnc(C(=O)NC7CCC(=O)NC7=O)nc6)CC5)CC4)ncc3Cl)ccc2n(C)c1=O (centres unmarked) for BCL6 (Homo sapiens (Human), UniProt P41182).
Result: 50 to 100 nM

====

target: BCL6 (Homo sapiens (Human), UniProt P41182); assay: BCL6 TR-FRET assay (BCL6-Avitag-Biotin / BCoR-Cy5 peptide); type: binding; conditions: read-out: IC50
pIC50: −log10 of the molar value.
Examples of compounds with documented pIC50 follow.

Recorded pIC50, per entry:
[[record]]
compound = "CNC(=O)COc1cc2cc(Nc3nc(N4CCC(N5CCC6(CCN(c7ccc8c(c7)C(=O)N(C7CCC(=O)NC7=O)C8=O)C6)CC5)CC4)ncc3Cl)ccc2n(C(C)C)c1=O (centres unmarked) [compound 515]"
system_under_test = "BCL6 (Homo sapiens (Human), UniProt P41182)"
endpoint_result = "7.30 to 8.00"

[[record]]
compound = "CNC(=O)COc1cc2cc(Nc3nc(N4CCN(CC5CCN(c6cc(OC)cc(C(=O)NC7CCC(=O)NC7=O)c6F)CC5)CC4)ncc3Cl)ccc2n(C)c1=O (centres unmarked) [compound 465]"
system_under_test = "BCL6 (Homo sapiens (Human), UniProt P41182)"
endpoint_result = "> 8.00"

[[record]]
compound = "CNC(=O)COc1cc2cc(Nc3nc(N4CCC[C@H](COc5cccc6c5C(=O)N(C5CCC(=O)NC5=O)C6=O)C4)ncc3Cl)ccc2n(CC2COC2)c1=O (some centres unmarked) [compound 491]"
system_under_test = "BCL6 (Homo sapiens (Human), UniProt P41182)"
endpoint_result = "≤ 7.00"


Okay, next one:
Request: Entry under review: CNC(=O)COc1cc2cc(Nc3nc(N4CCN(CC5CC6(CCN(c7cccc8c7C(=O)N(C7CCC(=O)NC7=O)C8=O)CC6)C5)CC4)ncc3Cl)ccc2n(C(C)C)c1=O (centres unmarked) [compound 517] . Reported pIC50?
Result: > 8.00

====

Target: BCL6 (Homo sapiens (Human))
Assay: Immunofluorescence high content imaging of BCL6 degradation in T47D cells
Format: cell-based
Conditions: T47D
Description: Immunofluorescence Protocol for High Cotent Imaging of BCL6 T47D cells were seeded in 100 μl volume of RPMI1640-10% FBS in a 96-well black/clear bottom plates for adherent lines (Corning #3904). Day 1. T47D breast cancer epithelial cells were seeded at a density so that confluence is ˜70-90% at endpoint. Cells were seeded at 7K/0.1 ml/well the morning prior to the addition of exemplary bifunctional degradation compounds. Day 2. […] Plates were equilibrated to room temperature prior to reading. […]
quantity.name: Dmax

Recorded Dmax, per entry:
[[record]]
molecule = "CNC(=O)COc1cc2cc(Nc3nc(N4CCC[C@H](COc5ccc6c(c5)C(=O)N(C5CCC(=O)NC5=O)C6=O)C4)ncc3Cl)ccc2n(C)c1=O (some centres unmarked)"
endpoint_result = "< 50%"

[[record]]
molecule = "CNC(=O)COc1cc2cc(Nc3nc(N4CCN(CC5CN(C6CCN(c7cccc8c7C(=O)N(C7CCC(=O)NC7=O)C8=O)CC6)C5)CC4)ncc3Cl)ccc2n(C(C)C)c1=O (centres unmarked)"
endpoint_result = "50 to 70%"

[[record]]
molecule = "CNC(=O)COc1cc2cc(Nc3nc(N4CCC5(CCN(CC6CCN(c7cccc8c7C(=O)N(C7CCC(=O)NC7=O)C8=O)CC6)CC5)C4)ncc3Cl)ccc2n(C(C)C)c1=O (centres unmarked)"
endpoint_result = "≥ 70%"


Request: Entry under review: CNC(=O)COc1cc2cc(Nc3nc(N4CCN(C)CC4)ncc3Cl)ccc2n(CCCCOc2ccc3c(c2)C(=O)N(C2CCC(=O)NC2=O)C3=O)c1=O (centres unmarked) . Reported Dmax?
Result: < 50%

Request: Entry under review: CNC(=O)COc1cc2cc(Nc3nc(N4CCCN(CC5CCN(c6ccc7c(c6)C(=O)N(C6CCC(=O)NC6=O)C7=O)CC5)CC4)ncc3Cl)ccc2n(C)c1=O (centres unmarked) . Reported Dmax?
Result: < 50%
